Hey, just so you know, these numbers are from patent US9216999B2.

IC50 values by entry
- experimental system: JAK1 (Homo sapiens (Human))
- protocol text: JAK1 enzyme assay (Assay Example^b 1)
- condition: IC50 (μM) JAK1, Table^b 80; ATP 100 μM
# unit: µM | format: bare number

Known results for compounds:
O=C1NCc2cnc3[nH]ccc3c2N1C1CCN(S(=O)(=O)Cc2ccccc2)CC1 = 0.35
C[C@@H]1CCN(Cc2cccc(C#N)c2)C[C@@H]1n1ccc(=O)c2cnc3[nH]ccc3c21 (racemic) = 0.016
O=C1NCc2cnc3[nH]ccc3c2N1C1CCN(Cc2ccc(C(F)(F)F)cc2)CC1 = 0.12

Query compound follows.
IC50 for O=c1ccn(C2CCN(Cc3ccc(C(F)(F)F)cc3)CC2)c2c1cnc1[nH]ccc12 [Synthetic Example^b 56] is 0.019
